Assay: Pharmacokinetic analysis in ICR mice
Format: in vivo
Settings: mouse, plasma, IV, 10 mg/kg
Where no end group is shown, it is not given here.
Readout name: AUC(0-inf) (ng·h/mL)
Answers are plain numbers, in ng·h/mL.

Query :: Give recorded AUC(0-inf). WYVYPSM [Preparative Example 4, WYVYPSM, reference compound]
Result :: 30

====

Assay: Pharmacokinetic analysis in ICR mice
Assay type: in vivo
Conditions: mouse, plasma, IV, 10 mg/kg
Experimental: The dTBP2 of Preparative Examples 4 and Example 3 was added to a solution prepared in DMSO:PEG400:DW=5:55:40, and this was administered at the concentration of 5 mL/kg. Blood samples were taken at 0.083, 0.25, 0.5, 1, 2, 4, and 8 hours post injection. […] After centrifugation again at 4° C., 13000 rpm for 10 minutes, the supernatant was collected and analyzed by Agilent 6460 LC-MS/MS. […]
Where no end group is shown, it is not given here.
Readout name: AUC(0-t) (ng·h/mL)
Answers are plain numbers, in ng·h/mL.

Query :: Report AUC(0-t) for WYVYPSM [Preparative Example 4, WYVYPSM, reference compound]
Result :: 20
